Measured values drawn from patent US20220259593A1 for this set.

test system: K562 CRISPRi cells; experiment: Constant region variant library pooled growth screen, K562; format: cell-based, human; conditions: sgRNA constant region variants; activity relative to the original, un-modified constant region cr995
Below, each entry is listed with its recorded Mean relative activity.

Molecule	Mean relative activity
cr809 (nucleic acid, listed as DNA, chemistry not fully specified) guide: GTTTAAGAGCTAAGCTGGAAACAGCATAGCAAGTTTAAATAAGGCTAGTCCGTTATCAACGTGAAAACGTGGAACCGAGTCGGTTCT	1.042
cr582 (nucleic acid, listed as DNA, chemistry not fully specified) guide: GTTTAAGAGCTAAGCTGGAAACAGCATAGCAAGTTTAAATACGGCTTGTCCGTTATCAACTTCAAAAAGTGGCACCGAGTCGGTGCT	0.07315
